experiment: cytotoxicity in HPDE-C7 cells, cell-based, fluorescence, HTS (AID 430); details: HPDE-C7 pancreatic duct cells viability, at 10 µM, hits give high values;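 also: cells exposed to compound for 48 hours before viability readout; 0% = vehicle and 100% = reference cytotoxic drug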
The whole screen tested about 63,000 compounds, of which about 1,100 (1.7%) were called active. This excerpt belongs to a sample that is enriched for actives. Results with a measured potency or affinity are listed apart.
Readings of cytotoxicity for the listed compounds
Give the number; % is assumed, so skip it.

COc1ccc(NC(=O)Cn2cnc3c(cnn3-c3ccc(C)c(C)c3)c2=O)c(OC)c1 = -1.2
Fc1cccc(C2CC(c3cccc(Br)c3)Nc3nnnn32)c1 (stereo not given) = -20.3
CCOc1cc2[nH]c(=O)n(CCC(=O)N3CCN(c4ccccc4OC)CC3)c(=O)c2cc1OCC = -8.1
Cc1cccc(-n2nnnc2SCC(=O)c2cc(C)n(CC3CCCO3)c2C)c1 (stereo not given) = -31.6
Cc1nc(N)c(C#N)c(-c2ccccc2)c1C = 13.3

Continue with the compound presented below.
*Q* Dear colleague, please send me the reported cytotoxicity for `C1CCC(c2nn3c(-c4n[nH]c5c4CCC5)nnc3s2)CC1` when you can.
*A* 2.9

---

experiment: cytotoxicity in HPDE-C7 cells, cell-based, fluorescence, HTS (AID 430); settings: HPDE-C7 pancreatic duct cells viability, at 10 µM, hits give high values;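 also: cells exposed to compound for 48 hours before viability readout; 0% = vehicle and 100% = reference cytotoxic drug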
Among all 63,000 compounds or so, about 1,100 (1.7%) were called active. Only a selection was taken, and actives are over-represented in it overall. Entries with a potency or affinity are not part of this list.
Readings of cytotoxicity for the listed molecules
Give the number; % is assumed, so skip it.

*Q* Dear colleague, please send me the reported cytotoxicity for `Cc1noc(C(=O)N2CCN(c3ccc(F)cc3)CC2)c1Cl` when you can.
*A* -11.2

*Q* Dear colleague, please send me the reported cytotoxicity for `O=C(Nc1nc2c(s1)COc1ccccc1-2)c1cccs1` when you can.
*A* 9.6

*Q* Dear colleague, please send me the reported cytotoxicity for `Cc1ccc(OCC(=O)N2CCN(C(=O)Cc3ccccc3)CC2)cc1` when you can.
*A* -0.3

*Q* Dear colleague, please send me the reported cytotoxicity for `COc1ccc(OC)c2sc(NC(=O)CCS(=O)(=O)c3ccccc3)nc12` when you can.
*A* -0.4

*Q* Dear colleague, please send me the reported cytotoxicity for O=C(c1ccccc1)N1CCCOC1c1ccccc1 (stereo unspecified) when you can.
*A* 2.4

*Q* Dear colleague, please send me the reported cytotoxicity for `COc1ccc(-c2noc(CCC(=O)N3CCN(Cc4ccccc4)CC3)n2)cc1` when you can.
*A* -6.2

---

experiment: cytotoxicity in HPDE-C7 cells, cell-based, fluorescence, HTS (AID 430); conditions: HPDE-C7 pancreatic duct cells viability, at 10 µM;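 also: cells exposed to compound for 48 hours before viability readout; 0% = vehicle and 100% = reference cytotoxic drug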
The whole screen tested about 63,000 compounds, of which about 1,100 (1.7%) were called active. Rule as the data show it: active = cytotoxicity above about 50%; inactive = the rest. For the sample, actives were picked, then their nearest neighbours and some compounds at random. Potency and affinity values are given separately.
Hi there, use one of these labels in your reply, thanks! 1 for active, -1 for inactive

CCCn1c(N)c(N(C)C)c(=O)n(CC(=O)Nc2ccc(OC(F)(F)F)cc2)c1=O = -1

# ---- query compound ----
*Q* Kindly provide the recorded test outcome for the following compound: `CCCS(=O)(=O)N1CCC(C(=O)NCCN2CCCC2)CC1`
*A* -1

---

test: cytotoxicity in HPDE-C7 cells, cell-based, fluorescence, HTS (AID 430); conditions: HPDE-C7 pancreatic duct cells viability, at 10 µM, hits give high values;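 also: cells exposed to compound for 48 hours before viability readout; 0% = vehicle and 100% = reference cytotoxic drug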
The whole screen tested about 63,000 compounds, of which about 1,100 (1.7%) were called active. What follows is part of a selection rich in actives, with near analogues and random picks from the rest. Results with a measured potency or affinity are listed apart.
Parameter Measured: cytotoxicity (%)
Give the number; % is assumed, so skip it.

c1cncc(-c2nn3cnnc3s2)c1 = 3.2
O=C1NC(c2cccs2)Nc2sc3c(c21)CCCC3 (configuration not stated) = 0.6
Cc1ccnc(SCC(=O)O)n1 = -31.8

*Q* Dear colleague, please send me the reported cytotoxicity for O=C1C=C(O)CC(c2ccc(Cl)cc2)C1 (configuration not stated) when you can.
*A* 31.1

*Q* Dear colleague, please send me the reported cytotoxicity for `COc1cc(Cl)c(S(=O)(=O)n2cnc(C)c2)cc1Cl` when you can.
*A* -0.2

*Q* Dear colleague, please send me the reported cytotoxicity for CCOC(=O)C1=C(CSc2nc3c(cc2C#N)CCC3)OC(N)=C(C#N)C1c1ccccc1 (configuration not stated) when you can.
*A* 101

*Q* Dear colleague, please send me the reported cytotoxicity for `O=C(Nc1cccc2ncccc12)c1cccnc1` when you can.
*A* -4.6

*Q* Dear colleague, please send me the reported cytotoxicity for CCOC(=O)C1=C(CSc2nc(C)cc(C)c2C#N)OC(N)=C(C#N)C1c1cccs1 (configuration not stated) when you can.
*A* -28.5

*Q* Dear colleague, please send me the reported cytotoxicity for `CCCCn1c(CCC(=O)O)ccc1-c1cccs1` when you can.
*A* -30.1

*Q* Dear colleague, please send me the reported cytotoxicity for Cc1ccc(N2C(=O)CC(N(O)C3CC(=O)N(c4ccc(C)cc4)C3=O)C2=O)cc1 (configuration not stated) when you can.
*A* 14.1

*Q* Dear colleague, please send me the reported cytotoxicity for `COc1cc(C)c(C(C)C)cc1S(=O)(=O)N1CCN(C)CC1` when you can.
*A* -22.7

*Q* Dear colleague, please send me the reported cytotoxicity for CCOC(=O)C1=C(C)OC(N)=C(C#N)C1c1ccc(OC)c(C)c1OC (configuration not stated) when you can.
*A* -1.3
